pIC50: −log10 of the molar value.
Several publications report pIC50 on Cytochrome P450 2C19 (Homo sapiens, UniProt P33261); those values are gathered here.

Reference set, count: 5
Cn1cc(-c2ccc(F)c(C(F)(F)F)c2)nc1C1CCN(c2ncnc(N)c2-c2ccc(F)cc2)CC1
< 4.70
C/C=C/C[C@@H](C)[C@@H](O)[C@H]1C(=O)N[C@@H](CC)C(=O)N(C)[C@H](C)C(=O)N(C)[C@@H]([C@@H](C)CN2CCN(CCOC)CC2)C(=O)N[C@@H](C(C)C)C(=O)N(C)[C@@H](CC(C)C)C(=O)N[C@@H](C)C(=O)N[C@H](C)C(=O)N(C)[C@@H](CC(C)C)C(=O)N(C)[C@@H](CC(C)C)C(=O)N(C)[C@@H](C(C)C)C(=O)N1C
< 4.40
C[C@@H]1CC(=O)Nc2ncnc(N3CCN(C(=O)[C@H](CNC4CC4)c4ccc(Cl)cc4)[C@@H]4C[C@@H]43)c21
< 4.52
Cc1c(C(=O)Nc2ccn(C)n2)ncn1Cc1cccc(C(F)(F)F)c1
< 4.52
CN(C)c1ccc(CNC(=O)N[C@H]2C[C@@H]2c2ccccc2)cc1 (racemic)
> 5.00

Q: Which value of pIC50 has been reported for C[C@@H]1c2ncn(-c3ccccn3)c2CCN1C(=O)c1cccc(C(F)(F)F)c1Cl in the records?
A: < 5.00

Q: Repeat for the following molecule: C[C@@H]1CCCN1CCc1ccc(-c2ccc(=O)n(-c3ccc(F)cc3)n2)cc1
A: < 4.52

Q: Repeat for the following molecule: COc1cc(C)[nH]c(=O)c1CN1CCc2c(Cl)cc([C@H](OC)C3COC3)c(Cl)c2C1=O
A: < 4.52

Q: Repeat for the following molecule: Cc1cc(Cn2c(=O)c3cc(S(=O)(=O)NC4(C)CC4)ccc3n(CC3COC3)c2=O)on1
A: < 4.60

Q: Repeat for the following molecule: Cc1ccc(NC(=O)c2ccnc(C(F)(F)F)c2)cc1-c1ccc2c(c1)OC1(CCOCC1)NC2=O
A: < 4.52

Q: Repeat for the following molecule: CCn1c([C@@H](C)NS(=O)(=O)c2ccc(C#N)nc2)nc2cnc(C3CC3)cc21
A: < 4.70

Q: Repeat for the following molecule: Cn1cc(Cn2c(=O)c3cc(S(=O)(=O)NC4(C)CC4)ccc3n(CC3COC3)c2=O)cn1
A: < 5.00
